Provide the recorded Approximate Maximum Concentration for the entries that follow.
Test method notes: Maximum concentration of ingredient incorporated into the microemulsion
Assay type: physicochemical
Cond: incorporated into the microemulsion formulation of Table 28
Output: the number by itself.

Return reported Approximate Maximum Concentration; argument: CC(=O)Oc1c(C)c(C)c2c(c1C)CCC(C)(CCC[C@H](C)CCC[C@H](C)CCCC(C)C)O2 (stereo partly drawn) [Vitamin E, α-Tocopherol acetate, reference compound]
1.0

Return reported Approximate Maximum Concentration; argument: CCCCCC [Hexane]
2.0

Return reported Approximate Maximum Concentration; argument: Cc1ccccc1 [Toluene]
2.0

Return reported Approximate Maximum Concentration; argument: C[C@]12C=CC(=O)C=C1CC[C@@H]1[C@@H]2C(=O)C[C@@]2(C)[C@H]1CC[C@]2(O)C(=O)CO [Prednisone, reference compound]
0.5
